test system: S. aureus (MRSA SAP0017); format: cell-based, Staphylococcus aureus; settings: SPOT synthesized control peptides, determined as in Table 5; Table 7; also: test concentration or dose not given here
Non-standard residues stand in square brackets, D forms with d. No end group written: not given here. Agb = N=C(N)NCC[C@H](N)C(=O)O; Agp = N=C(N)NC[C@H](N)C(=O)O; Dap = NC[C@H](N)C(=O)O
Property Label: % Biofilm Inhibition (%)
Note: unit % is implicit; provide only the numeric part.

Request: Which value of % Biofilm Inhibition has been reported for C12 (VIRAKAVWGWVK) [Peptide C12] in the records?
Response: 104

Request: Could you share which % Biofilm Inhibition value was measured for C76 (VRLIVAVR[Agb]WRR; not fully specified (C-terminus); printed as VRLIVAVRGbutWRR) [Peptide C76] ?
Response: 104

Request: Give its % Biofilm Inhibition value. Item: C54 (QVVVKKKAIQVV) [Peptide C54]
Response: 101

Request: Requested field: % Biofilm Inhibition. Item: C21 (VLLRVGARIVVG) [Peptide C21]
Response: 99

Request: Requested read-out: % Biofilm Inhibition. Entry: C40 (ALLAGRKRAVAV) [Peptide C40]
Response: 102

Request: % Biofilm Inhibition lookup needed for C43 (AVIVRAAKGGAR) [Peptide C43] , thanks.
Response: 103

Request: Look at this substance and give its reported % Biofilm Inhibition. C31 (RAIIKQRWQRRW) [Peptide C31]
Response: 103

Request: For the substance shown here, C65 (VRLIVAVR[Agp]WRR) [Peptide C65] , give the reported % Biofilm Inhibition.
Response: 107

Request: Reported % Biofilm Inhibition for C52 (KIVQKKLRLVVI) [Peptide C52] : what is it?
Response: 99

Request: Item under review: C44 (LLKLKQKGIVIA) [Peptide C44] . Reported % Biofilm Inhibition?
Response: 102

Request: Name the recorded % Biofilm Inhibition for C94 (VRLIVAVR[Dap]WRR) [Peptide C94] .
Response: 92

Request: Look up % Biofilm Inhibition: C28 (WIIRWIKIWLKI) [Peptide C28]
Response: 72
